target-desc: human C5 protein (human, UniProt P01031 19-673; P01031 678-1676)
procedure-details: cell-based or functional assay
Positions of bridges follow the written chain, without caps; N, C: chain ends. Non-standard residues stand in square brackets, D forms with d. Primed or numbered codes have the meaning given here. mXylyl(3) = bridging moiety between the two residues given in brackets; Trp(7-aza) = N[C@@H](Cc1c[nH]c2ncccc12)C(=O)O; Phe(4-F) = N[C@@H](Cc1ccc(F)cc1)C(=O)O; Phg = N[C@H](C(=O)O)c1ccccc1; NMeS = CN[C@@H](CO)C(=O)O; Nva = CCC[C@H](N)C(=O)O
Avg. IC50, human hemolysis assay values for the binders below.
Write it as a number; the unit nM goes unstated.

Ac-[Nva]C[Phg]T[Trp(7-aza)]E[Phe(4-F)][NMeS]HC[Nva]-NH2 (linker 2-10 via mXylyl(3)) [R3073]; 403

**Q:** Suppose we examine the binder Ac-[Nva]C[Phg]TWEY[NMeS]AC[Nva]-NH2 (linker 2-10 via mXylyl(3)) [R3091] ; what Avg. IC50, human hemolysis assay value has been reported?
**A:** 483

Entry source: patent US20210283212A1
